Test: Evaluation of hippocampal distribution in mouse
Format: in vivo
Settings: plasma, male ICR mice, 10 mg/kg oral, 1 hr after administration, read-out: plasma concentration (mean)
Experimental: Evaluation of Hippocampal Distribution in Mouse Male ICR mice (hereinafter mice) were acclimated for at least one week in a rearing facility. The mice were raised in a rearing room with controlled temperature and humidity under a 12:12 hour light-dark cycle, and allowed free ingestion of feed and water. The compounds were suspended in 0.5% methylcellulose/0.02% citric acid/distilled water and orally administered. All compounds were administered to the mice at a dose of 10 mg/kg (body weight). […]
Where a name gives a salt, the structure may show the parent alone.
MEASURED QUANTITY: concentration at 1 h (ng/mL)
One number for each entry, in ng/mL.

Reference set (3 entries):
| COMPOUND | RECORDED MEASUREMENT |
| --- | --- |
| Cn1cc(NC(=O)c2cccc([C@@H]3C[C@H]3NC3CCC(F)(F)CC3)c2)cn1 (relative stereo) [Example 205, dihydrochloride] | 920 |
| Cn1cc(NC(=O)c2cccc([C@@H]3C[C@H]3NC3CCCC3)c2)cn1 (relative stereo) [Example 172, dihydrochloride] | 556 |
| Cc1cc(NC(=O)c2cccc([C@@H]3C[C@H]3NCC3CC3)c2)no1 (relative stereo) [Example 103, hydrochloride] | 375 |

Lab note: next compound to report on.
Sure, the documented concentration at 1 h for Cc1cc(NC(=O)c2cccc([C@@H]3C[C@H]3NCC3CCOCC3)c2)no1 (relative stereo) [Example 231] is 117

###

test: Evaluation of hippocampal distribution in mouse; type: in vivo; settings: hippocampus/plasma, male ICR mice, 10 mg/kg oral, 0.5 hr after administration, read-out: hippocampus/plasma concentration ratio (mean)
Counter-ions that a name gives are not always drawn.
MEASURED QUANTITY: Kp at 0.5 h
Give bare numbers.

| COMPOUND | Kp at 0.5 h |
| --- | --- |
| Cn1cc(NC(=O)c2cccc([C@@H]3C[C@H]3NC3CCN(CC(F)(F)F)CC3)c2)cn1 (relative stereo) [Example 171, trihydrochloride] | 0.2 |
| Cc1nnc(NC(=O)c2ccc(C)c([C@@H]3C[C@H]3NC3CCOCC3)c2)s1 (relative stereo) [Example 185, hydrochloride] | 0.58 |

Sure, the documented Kp at 0.5 h for Cc1cc(NC(=O)c2cccc([C@@H]3C[C@H]3NCC3CC3)c2)n(C)n1 (relative stereo) [Example 107, dihydrochloride] is 0.09

###

experiment: Evaluation of hippocampal distribution in mouse; type: in vivo; settings: hippocampus/plasma, male ICR mice, 10 mg/kg oral, 0.5 hr after administration, read-out: hippocampus/plasma concentration ratio (mean)
Structures can show the parent of a compound that is named as a salt.
Provide the reported Kp at 0.5 h of each item.

Reference set (5 entries):
| COMPOUND | Kp at 0.5 h |
| --- | --- |
| Cc1cc(NC(=O)c2cccc([C@@H]3C[C@H]3NC3CCOCC3)c2)on1 (relative stereo) [Example 235, hydrochloride] | 1.04 |
| O=C(NC1CCOCC1)c1cccc([C@@H]2C[C@H]2NCC2CC2)c1 (relative stereo) [Example 100, hydrochloride] | 0.24 |
| O=C(NC1CC(F)(F)C1)c1ccc(F)c([C@@H]2C[C@H]2NCC2CC2)c1 (relative stereo) [Example 240, hydrochloride] | 1.31 |
| Cc1nnc(NC(=O)c2cc([C@@H]3C[C@H]3NC3CCC(F)(F)CC3)ccc2F)s1 (relative stereo) [Example 223, dihydrochloride] | 1.69 |
| O=C(NC1CC(F)(F)C1)c1cc([C@@H]2C[C@H]2NCC2CC2)ccc1F (relative stereo) [Example 241, hydrochloride] | 5.31 |

Please go through the list and note Kp at 0.5 h for each compound.
1. Cc1cc(NC(=O)c2cccc([C@@H]3C[C@H]3NC3CCC(F)(F)CC3)c2)n(C)n1 (relative stereo) [Example 215, dihydrochloride]
2. Cc1nnc(NC(=O)c2cccc([C@@H]3C[C@H]3NCC3CCOCC3)c2)s1 (relative stereo) [Example 112, dihydrochloride]
3. O=C(NC1CCOCC1)c1cccc([C@@H]2C[C@H]2NC2CCC(F)(F)CC2)c1 (relative stereo) [Example 178, hydrochloride]
4. O=C(NC1CCOCC1)c1cc([C@@H]2C[C@H]2NCC2CC2)ccc1F (relative stereo) [Example 111, hydrochloride]

Out:
[0.31, 0.36, 0.52, 1.59]

###

Assay: Evaluation of hippocampal distribution in mouse
Type: in vivo
Conditions: hippocampus, male ICR mice, 10 mg/kg oral, 1 hr after administration, read-out: hippocampus concentration (mean)
Procedure: Evaluation of Hippocampal Distribution in Mouse Male ICR mice (hereinafter mice) were acclimated for at least one week in a rearing facility. The mice were raised in a rearing room with controlled temperature and humidity under a 12:12 hour light-dark cycle, and allowed free ingestion of feed and water. The compounds were suspended in 0.5% methylcellulose/0.02% citric acid/distilled water and orally administered. All compounds were administered to the mice at a dose of 10 mg/kg (body weight). […]
Where a name gives a salt, the structure may show the parent alone.
MEASURED QUANTITY: concentration at 1 h (ng/g)
Numbers only, in ng/g.

Reference set (5 entries):
| MOLECULE | UOM | RECORDED MEASUREMENT |
| --- | --- | --- |
| Cn1cc(NC(=O)c2cccc([C@@H]3C[C@H]3NC3CCCC3)c2)cn1 (relative stereo) [Example 172, dihydrochloride] | ng/g | 419 |
| Cc1nnc(NC(=O)c2cccc([C@@H]3C[C@H]3NC3CCC(F)(F)CC3)c2)s1 (relative stereo) [Example 167, hydrochloride] | ng/g | 915 |
| Cc1cc(NC(=O)c2cccc([C@@H]3C[C@H]3NCC3CC3)c2)on1 (relative stereo) [Example 106, hydrochloride] | ng/g | 107 |
| Cc1nnc(NC(=O)c2cccc([C@@H]3C[C@H]3NC3CCN(C4CC4)CC3)c2)s1 (relative stereo) [Example 176, fumarate] | ng/g | 642 |
| Cc1nnc(NC(=O)c2cccc([C@@H]3C[C@H]3NC3CCC3)c2)s1 (relative stereo) [Example 174, hydrochloride] | ng/g | 1280 |

Sure, the documented concentration at 1 h for O=C(NC1CC(F)(F)C1)c1cccc([C@@H]2C[C@H]2NC2CCC(F)(F)CC2)c1 (relative stereo) [Example 234, hydrochloride] is 276

###

UniProt:P21397: reported pIC50 for various compounds.
pIC50: −log10 of the molar value. Where a name gives a salt, the structure may show the parent alone.

Reference set (6 entries):
| COMPOUND | pIC50 |
| --- | --- |
| O=C(NCc1cccc2c1OCCO2)c1ccc([C@@H]2C[C@H]2NCC2CC2)cc1 (relative stereo) [Example 30, trifluoroacetate] | < 5.00 |
| O=C(NCc1ccccn1)c1ccc([C@@H]2C[C@H]2NCC2CC2)cc1 (relative stereo) [Example 16, bis(trifluoroacetate)] | < 5.00 |
| Cc1ncc(NC(=O)c2cccc([C@@H]3C[C@H]3NC3CCC3)c2)s1 (relative stereo) [Example 210, dihydrochloride] | < 5.00 |
| O=C(NCCc1ccccc1)c1cccc([C@@H]2C[C@H]2NCC2CC2)c1 (relative stereo) [Example 120, trifluoroacetate] | 5.02 |
| O=C(NCc1ccc(N2CCOCC2)cc1)c1ccc([C@@H]2C[C@H]2NCC2CC2)cc1 (relative stereo) [Example 28, bis(trifluoroacetate)] | < 5.00 |
| O=C(Nc1ccccc1)c1cccc([C@@H]2C[C@H]2NCC2CC2)c1 (relative stereo) [Example 13, hydrochloride] | < 5.00 |

Please go through the list and note pIC50 for each compound.
1. O=C(Nc1cnn(-c2ccc(F)cc2)c1)c1cccc([C@@H]2C[C@H]2NC2CCOCC2)c1 (relative stereo) [Example 196, dihydrochloride]
2. O=C(Nc1cccc(C(F)(F)F)c1)c1ccc([C@@H]2C[C@H]2NC2CCS(=O)(=O)CC2)cc1 (relative stereo) [Example 62, hydrochloride]

Out:
1: < 5.00; 2: < 5.00

Please go through the list and note pIC50 for each compound.
1. N#CCN(Cc1ccccc1)C(=O)c1ccc([C@@H]2C[C@H]2NCC2CC2)cc1 (relative stereo) [Example 22, trifluoroacetate]
2. N#Cc1ccc(CN[C@@H]2C[C@H]2c2ccc(C(=O)NCc3ccccc3)cc2)cc1 (relative stereo) [Example 36, trifluoroacetate]

Out:
1. < 5.00
2. 5.37

Please go through the list and note pIC50 for each compound.
1. N[C@@H]1C[C@H]1c1ccc(C(=O)N2CCCCC2)cc1 (relative stereo) [Example 7, hydrochloride]
2. Cc1ccc(CN[C@@H]2C[C@H]2c2ccc(C(=O)NCc3ccccc3)cc2)cc1 (relative stereo) [Example 34, trifluoroacetate]

Out:
6.10
5.36

###

Provide the reported IC50 of each item.
biological target: MAO-A enzyme (Homo sapiens (Human), UniProt P21397)
Sequence (P21397 whole entry): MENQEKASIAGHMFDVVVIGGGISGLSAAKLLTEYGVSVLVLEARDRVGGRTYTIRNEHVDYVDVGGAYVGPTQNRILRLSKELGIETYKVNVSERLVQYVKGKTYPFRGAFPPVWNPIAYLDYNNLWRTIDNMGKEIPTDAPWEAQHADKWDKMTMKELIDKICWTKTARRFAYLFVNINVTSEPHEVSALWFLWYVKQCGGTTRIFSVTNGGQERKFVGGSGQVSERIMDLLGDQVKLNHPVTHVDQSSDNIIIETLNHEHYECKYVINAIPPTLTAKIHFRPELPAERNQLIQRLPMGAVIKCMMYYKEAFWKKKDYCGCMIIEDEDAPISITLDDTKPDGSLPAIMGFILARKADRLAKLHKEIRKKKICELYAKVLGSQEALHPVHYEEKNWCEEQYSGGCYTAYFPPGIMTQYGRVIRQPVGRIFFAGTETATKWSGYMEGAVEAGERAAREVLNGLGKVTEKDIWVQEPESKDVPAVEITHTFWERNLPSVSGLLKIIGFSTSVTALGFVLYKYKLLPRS
Counter-ions that a name gives are not always drawn.

| COMPOUND | TESTED TARGET | RECORDED MEASUREMENT |
| --- | --- | --- |
| N[C@@H]1C[C@H]1c1ccc(C(=O)Nc2ccc(-c3ncccn3)cc2)cc1 (relative stereo) [Example 50, dihydrochloride] | MAO-A enzyme (Homo sapiens (Human), UniProt P21397) | 0.2 µM |
| O=C(NCCc1ccccn1)c1ccc([C@@H]2C[C@H]2NCC2CC2)cc1 (relative stereo) [Example 19, bis(trifluoroacetate)] | MAO-A enzyme (Homo sapiens (Human), UniProt P21397) | > 10 µM |
| Cn1cc(NC(=O)c2ccc(F)c([C@@H]3C[C@H]3NCC3CC3)c2)cn1 (relative stereo) [Example 237, dihydrochloride] | MAO-A enzyme (Homo sapiens (Human), UniProt P21397) | > 10 µM |
| O=C(NC1CCCC1)c1cccc([C@@H]2C[C@H]2NCC2CCOCC2)c1 (relative stereo) [Example 83, hydrochloride] | MAO-A enzyme (Homo sapiens (Human), UniProt P21397) | > 10 µM |

Please go through the list and note IC50 for each compound.
1. O=C(NC1CCCC1)c1cccc([C@@H]2C[C@H]2NC2CCN(C3CC3)CC2)c1 (relative stereo) [Example 199, dihydrochloride]
2. Cc1ccsc1CN[C@@H]1C[C@H]1c1ccc(C(=O)NCc2ccccc2)cc1 (relative stereo) [Example 47, trifluoroacetate]
3. CN(C(=O)c1ccc([C@@H]2C[C@H]2N)cc1)c1ccccc1 (relative stereo) [Example 3, hydrochloride]
4. O=C(NCc1cccc(Oc2cnccn2)c1)c1ccc([C@@H]2C[C@H]2NCC2CC2)cc1 (relative stereo) [Example 29, bis(trifluoroacetate)]

Out:
["> 10 µM", "5 µM", "0.25 µM", "7.3 µM"]
